assay: Apparent permeability across apical to basolateral side in human Caco2 cells measured at 60 to 120 mins by LC/MS/MS analysis; assay type: ADME, cell-based; settings: Caco-2, read-out: permeability
Provide the reported Papp A→B of each item.
Value expressed in ×10⁻⁶ cm/s; do not type the unit.

Problem: Dear colleague, I am looking for the recorded Papp A→B of the following molecule: CC(C)[C@@H]1OC(=O)C(CO)(CO)/C=C/c2ccc3ccc(nc3c2)[C@@H](C)NC(=O)[C@@H]2CCCN(N2)C(=O)[C@H](C)NC1=O
Result: 0.08

Problem: Dear colleague, I am looking for the recorded Papp A→B of the following molecule: CC(C)[C@@H]1NC(=O)C(C)(C)/C=C/c2ccc3ccc(nc3c2)[C@@H](C)OC(=O)[C@@H]2CCCN(N2)C(=O)[C@H](C)NC1=O
Result: 2

Problem: Dear colleague, I am looking for the recorded Papp A→B of the following molecule: CC(C)[C@@H]1NC(=O)C/C=C/c2ccc3ccc(nc3c2)[C@@H](C)OC(=O)[C@@H]2CCCN(N2)C(=O)[C@H](C)NC1=O
Result: 1.2

Problem: Dear colleague, I am looking for the recorded Papp A→B of the following molecule: CC(C)[C@@H]1OC(=O)C2(/C=C/c3ccc4ccc(nc4c3)[C@@H](C)NC(=O)[C@@H]3CCCN(N3)C(=O)[C@H](C)NC1=O)CCS(=O)(=O)CC2
Result: 0.48

Problem: Dear colleague, I am looking for the recorded Papp A→B of the following molecule: CC(C)[C@@H]1OC(=O)C2(/C=C/c3ccc4ccc(nc4c3)[C@@H](C)NC(=O)[C@@H]3CCCN(N3)C(=O)[C@H](C)NC1=O)COCCOC2
Result: 0.72

Problem: Dear colleague, I am looking for the recorded Papp A→B of the following molecule: CC(C)[C@@H]1NC(=O)C/C=C/c2cc3cc(ccc3cn2)[C@@H](C)OC(=O)[C@@H]2CCCN(N2)C(=O)[C@H](C)NC1=O
Result: 0.32

Problem: Dear colleague, I am looking for the recorded Papp A→B of the following molecule: CO[C@H]1CC[C@@]2(/C=C/c3ccc4ccc(nc4c3)[C@@H](C)NC(=O)[C@@H]3CCCN(N3)C(=O)[C@H](C)NC(=O)[C@H](C(C)C)OC2=O)CC1
Result: 13
